Test System: recombinant PRL-1 (Homo sapiens)
Construct: 6xHis (N, cleaved yes); made in house; host or cells: E. coli One Shot BL21 Star
Assay Procedure: In vitro phosphatase assay (DiFMUP hydrolysis), PRL-1
Type: biochemical
Measurement Context: FDA-approved drug screen; compared to DMSO
I would appreciate it if you labelled entries fulfilled when % Phosphatase Activity (compared to DMSO) PRL-1 is 90% or higher, otherwise not fulfilled.

{"Compound": "O=C(Nc1nc2cccc(-c3ccc(CN4CCS(=O)(=O)CC4)cc3)n2n1)C1CC1 [Filgotinib (GLPG0634)]", "Assigned Class": "fulfilled"}
{"Compound": "Cc1cccc(-c2nn3c(c2-c2ccnc4ccc(C(N)=O)cc24)CCC3)n1 [LY2157299]", "Assigned Class": "fulfilled"}
{"Compound": "CO[C@H]1O[C@@H]2O[C@@]3(C)CC[C@H]4[C@H](C)CC[C@@H]([C@H]1C)[C@@]24OO3 [Artemether]", "Assigned Class": "not fulfilled"}
{"Compound": "Cn1cc(C2=C(c3cn(C4CCN(Cc5ccccn5)CC4)c4ccccc34)C(=O)NC2=O)c2ccccc21 [Enzastaurin (LY317615)]", "Assigned Class": "not fulfilled"}
{"Compound": "CC(C)(Oc1ccc(CCNC(=O)c2ccc(Cl)cc2)cc1)C(=O)O [Bezafibrate]", "Assigned Class": "fulfilled"}
{"Compound": "COc1cc(Nc2ncc3c(n2)-c2ccc(Cl)cc2C(c2c(F)cccc2OC)=NC3)ccc1C(=O)O [Alisertib (MLN8237)]", "Assigned Class": "not fulfilled"}

###

Test System: recombinant PRL-3 (Homo sapiens)
Construct: 6xHis (N, cleaved yes); made in house; host or cells: E. coli One Shot BL21 Star
Sequence (O75365 whole entry): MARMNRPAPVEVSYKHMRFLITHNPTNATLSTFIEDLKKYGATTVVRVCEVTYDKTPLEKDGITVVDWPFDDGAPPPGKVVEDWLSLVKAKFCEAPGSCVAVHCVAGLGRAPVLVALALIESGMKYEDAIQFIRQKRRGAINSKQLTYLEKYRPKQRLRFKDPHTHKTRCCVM
Assay Procedure: In vitro phosphatase assay (DiFMUP hydrolysis), PRL-3
Assay type: biochemical
Measurement Context: FDA-approved drug screen; compared to DMSO
Where a name gives a salt, the structure may show the parent alone.
Endpoint: % Phosphatase Activity (compared to DMSO) PRL-3 (%)

{"Compound": "Cc1ccc(-c2ncc(Cl)cc2-c2ccc(S(C)(=O)=O)cc2)cn1", "Reported Measurement": 91}
{"Compound": "CC(C)(Oc1ccc(CCNC(=O)c2ccc(Cl)cc2)cc1)C(=O)O [Bezafibrate]", "Reported Measurement": 90}
{"Compound": "CN1CCN(CCCN2c3ccccc3Sc3ccc(Cl)cc32)CC1.O=C(O)/C=C\\C(=O)O.O=C(O)/C=C\\C(=O)O [Prochlorperazine dimaleate salt]", "Reported Measurement": 91}
{"Compound": "C[N+](C)(C)C[C@H](O)CC(=O)[O-]", "Reported Measurement": 83}
{"Compound": "CN1C(CCl)Nc2cc(Cl)c(S(N)(=O)=O)cc2S1(=O)=O (stereo not shown) [Methyclothiazide]", "Reported Measurement": 62}
{"Compound": "NC(=O)Cc1cccc(C(=O)c2ccccc2)c1N", "Reported Measurement": 72}
{"Compound": "OC(c1cc(C(F)(F)F)nc2c(C(F)(F)F)cccc12)C1CCCCN1 (stereo not shown) [Mefloquine HCl]", "Reported Measurement": 109}
{"Compound": "C=CC[N+]1([C@H]2C[C@H]3[C@@H]4CC[C@H]5C[C@H](O)[C@@H](N6CCOCC6)C[C@]5(C)[C@H]4CC[C@]3(C)[C@H]2OC(C)=O)CCCC1 [Rocuronium Bromide]", "Reported Measurement": 90}
{"Compound": "Cc1ncc(CO)c(CO)c1O [Pyridoxine HCl]", "Reported Measurement": 91}
{"Compound": "CC(=O)O.CC(=O)O.CC[C@H](C)C[C@H](C)CCCCCCCCC(=O)N[C@H]1C[C@@H](O)[C@@H](NCCN)NC(=O)[C@@H]2[C@@H](O)CCN2C(=O)[C@H]([C@H](O)CCN)NC(=O)[C@H]([C@H](O)[C@@H](O)c2ccc(O)cc2)NC(=O)[C@@H]2C[C@@H](O)CN2C(=O)[C@H]([C@@H](C)O)NC1=O [Caspofungin Acetate]", "Reported Measurement": 109}
{"Compound": "N[C@@H](Cc1cc(I)c(Oc2cc(I)c(O)c(I)c2)c(I)c1)C(=O)O", "Reported Measurement": 81}
{"Compound": "CC(CCc1ccccc1)NCC(O)c1ccc(O)c(C(N)=O)c1 (stereo not shown) [Labetalol HCl]", "Reported Measurement": 110}
{"Compound": "[NH2][Pt]1([NH2])[O]CC(=O)[O]1", "Reported Measurement": 94}
{"Compound": "CCCN(CCC)S(=O)(=O)c1ccc(C(=O)O)cc1", "Reported Measurement": 84}
{"Compound": "COc1ccccc1OCC(O)CO (stereo not shown)", "Reported Measurement": 100}
{"Compound": "CC(C(=O)O)c1ccc2c(c1)Cc1cccnc1O2 (stereo not shown)", "Reported Measurement": 92}

###

Test System: recombinant PRL-1 (Homo sapiens, UniProt Q93096)
Construct: 6xHis (N, cleaved yes); made in house; host or cells: E. coli One Shot BL21 Star
Sequence (Q93096 1-173): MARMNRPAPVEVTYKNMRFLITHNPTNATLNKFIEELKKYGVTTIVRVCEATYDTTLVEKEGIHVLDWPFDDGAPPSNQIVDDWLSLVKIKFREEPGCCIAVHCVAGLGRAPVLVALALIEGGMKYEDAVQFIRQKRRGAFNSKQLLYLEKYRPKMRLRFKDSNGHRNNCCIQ
Assay Procedure: In vitro phosphatase assay (DiFMUP hydrolysis), PRL-1
Type: biochemical
Measurement Context: FDA-approved drug screen; compared to DMSO
Where a name gives a salt, the structure may show the parent alone.
True if % Phosphatase Activity (compared to DMSO) PRL-1 is below 90%. False if not; exact matches included in False.

{"Compound": "O=C1[C@H](CC[C@H](O)c2ccc(F)cc2)[C@@H](c2ccc(O)cc2)N1c1ccc(F)cc1", "Assigned Class": "False"}
{"Compound": "C#Cc1cccc(Nc2ncnc3cc(OCCOC)c(OCCOC)cc23)c1", "Assigned Class": "False"}
{"Compound": "CCC1(c2ccc(N)cc2)CCC(=O)NC1=O (stereo not drawn) [Aminoglutethimide]", "Assigned Class": "False"}
{"Compound": "CCC(=O)NS(=O)(=O)c1ccc(-c2c(-c3ccccc3)noc2C)cc1", "Assigned Class": "False"}
{"Compound": "Cc1cccc(C)c1NC(=O)C1CCCCN1C (stereo not drawn) [Mepivacaine HCl]", "Assigned Class": "True"}
{"Compound": "C[C@]12CC[C@@H]3c4ccc(O)cc4CC[C@H]3[C@@H]1C[C@@H](O)[C@@H]2O", "Assigned Class": "False"}
{"Compound": "Cc1cn(-c2cc(NC(=O)c3ccc(C)c(Nc4nccc(-c5cccnc5)n4)c3)cc(C(F)(F)F)c2)cn1", "Assigned Class": "True"}
{"Compound": "COc1ccc(CN(CCN(C)C)c2ccccn2)cc1 [Pyrilamine Maleate]", "Assigned Class": "False"}
{"Compound": "Cc1ccc(C)c(OCCCC(C)(C)C(=O)O)c1", "Assigned Class": "False"}
{"Compound": "COC(=O)C1=C(C)NC(C)=C(C(=O)OCCN2CCN(C(c3ccccc3)c3ccccc3)CC2)C1c1cccc([N+](=O)[O-])c1.Cl.Cl (stereo not drawn) [Manidipine 2HCl]", "Assigned Class": "False"}

###

Test System: recombinant PRL-1 (Homo sapiens, UniProt Q93096)
Construct: 6xHis (N, cleaved yes); made in house; host or cells: E. coli One Shot BL21 Star
Assay Procedure: In vitro phosphatase assay (DiFMUP hydrolysis), PRL-1
Assay type: biochemical
Measurement Context: FDA-approved drug screen; compared to DMSO
Endpoint: % Phosphatase Activity (compared to DMSO) PRL-1 (%)

{"Compound": "Nc1nc(Cl)nc2c1ncn2[C@H]1C[C@H](O)[C@@H](CO)O1 [Cladribine]", "Reported Measurement": 98}
{"Compound": "Cc1onc(-c2ccccc2Cl)c1C(=O)N[C@@H]1C(=O)N2[C@@H]1SC(C)(C)[C@@H]2C(=O)O [Cloxacillin Sodium]", "Reported Measurement": 98}
{"Compound": "CCOC(=O)CCC(=O)O[C@H]1[C@H](O[C@@H]2[C@@H](C)[C@H](O[C@H]3C[C@@](C)(OC)[C@@H](O)[C@H](C)O3)[C@@H](C)C(=O)O[C@H](CC)[C@@](C)(O)[C@H](O)[C@@H](C)C(=O)[C@H](C)C[C@@]2(C)O)O[C@H](C)C[C@@H]1N(C)C [Erythromycin Ethylsuccinate]", "Reported Measurement": 85}
{"Compound": "CC1(C)Cc2c(-c3ccccc3)c(-c3ccc(Cl)cc3)c(CC(=O)O)n2C1 [Licofelone]", "Reported Measurement": 80}
{"Compound": "CCOc1ccc(NC(=O)CC(C)O)cc1 (stereo not shown) [Bucetin]", "Reported Measurement": 109}
{"Compound": "O=C(O)CCNC(=O)c1ccccc1 [Betamipron]", "Reported Measurement": 98}
{"Compound": "CCOC(=O)c1c(C)n(C)c2ccc(O)cc12 [Mecarbinate]", "Reported Measurement": 108}
{"Compound": "Nc1cccc2c1C(=O)N(C1CCC(=O)NC1=O)C2=O (stereo not shown) [Pomalidomide]", "Reported Measurement": 264}
{"Compound": "CCC1(c2cnc[nH]2)Cc2ccccc2C1.Cl [Atipamezole hydrochloride]", "Reported Measurement": 98}
{"Compound": "CCCCC(=O)O[C@H]1CC[C@H]2[C@@H]3CCc4cc(O)ccc4[C@H]3CC[C@]12C [Estradiol valerate]", "Reported Measurement": 103}
{"Compound": "Cc1cc(Nc2cc(CN3CCOCC3)c3nc(C)c(Cc4ccc(Cl)cc4F)n3n2)n[nH]1 [LY2784544]", "Reported Measurement": 146}
{"Compound": "CNC(=O)[C@@H](NC(=O)[C@H](CC(C)C)[C@H](O)C(=O)NO)C(C)(C)C [Marimastat(BB-2516)]", "Reported Measurement": 85}
{"Compound": "NC(=O)c1cnccn1 [Pyrazinamide]", "Reported Measurement": 85}
{"Compound": "CC(C)C[C@H](NC(=O)[C@@H](NC(=O)c1cccc(-c2ccccc2)n1)[C@@H](C)O)B(O)O [CEP-18770 (Delanzomib)]", "Reported Measurement": 103}
{"Compound": "CCCCCCNC(=O)n1cc(F)c(=O)[nH]c1=O [Carmofur]", "Reported Measurement": 89}
{"Compound": "CCOC(=O)OC(C)OC1=C(C(=O)Nc2ccccn2)N(C)S(=O)(=O)c2ccccc21 (stereo not shown) [Ampiroxicam]", "Reported Measurement": 114}
